Measured pIC50 values are reported for all entries that follow.
Molecular target: Voltage-gated inwardly rectifying potassium channel KCNH2 (Homo sapiens, UniProt Q12809)
Sequence (Q12809 whole entry): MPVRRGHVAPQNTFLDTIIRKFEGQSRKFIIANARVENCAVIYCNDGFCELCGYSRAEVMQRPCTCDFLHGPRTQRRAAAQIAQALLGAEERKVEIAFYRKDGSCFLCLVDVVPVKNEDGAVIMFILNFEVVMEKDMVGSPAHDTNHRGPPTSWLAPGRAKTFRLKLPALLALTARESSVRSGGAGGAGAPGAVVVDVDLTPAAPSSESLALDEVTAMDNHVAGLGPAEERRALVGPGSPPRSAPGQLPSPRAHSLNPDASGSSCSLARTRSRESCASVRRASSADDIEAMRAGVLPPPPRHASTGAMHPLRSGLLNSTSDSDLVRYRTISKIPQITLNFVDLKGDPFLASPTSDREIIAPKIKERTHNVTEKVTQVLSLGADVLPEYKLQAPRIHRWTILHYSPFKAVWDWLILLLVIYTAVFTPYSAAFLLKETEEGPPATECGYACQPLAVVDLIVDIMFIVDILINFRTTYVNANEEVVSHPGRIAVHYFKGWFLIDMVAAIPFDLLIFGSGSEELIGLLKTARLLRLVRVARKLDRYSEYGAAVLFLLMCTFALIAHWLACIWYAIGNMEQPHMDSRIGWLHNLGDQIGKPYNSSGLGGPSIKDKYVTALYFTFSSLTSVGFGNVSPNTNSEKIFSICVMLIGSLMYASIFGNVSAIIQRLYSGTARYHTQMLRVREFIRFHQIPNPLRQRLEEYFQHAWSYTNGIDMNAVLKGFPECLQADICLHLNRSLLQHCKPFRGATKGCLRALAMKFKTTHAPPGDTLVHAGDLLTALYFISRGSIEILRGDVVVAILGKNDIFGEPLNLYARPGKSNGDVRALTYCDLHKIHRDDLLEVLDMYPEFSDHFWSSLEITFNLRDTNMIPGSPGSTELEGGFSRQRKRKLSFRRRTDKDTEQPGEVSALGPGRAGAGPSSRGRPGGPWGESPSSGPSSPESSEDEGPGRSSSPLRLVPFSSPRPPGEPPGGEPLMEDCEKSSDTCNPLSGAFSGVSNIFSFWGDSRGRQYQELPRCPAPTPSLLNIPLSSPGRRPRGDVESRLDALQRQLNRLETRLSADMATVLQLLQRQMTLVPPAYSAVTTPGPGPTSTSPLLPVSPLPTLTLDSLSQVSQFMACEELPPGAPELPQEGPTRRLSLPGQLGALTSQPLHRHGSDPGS
pIC50: −log10 of the molar value.
quantity-measured: pIC50

- O[C@H]1Cc2cc(Cl)ccc2-n2c(nnc2[C@H]2CC[C@H](Oc3ccccn3)CC2)C1: < 4.52
- OC1Cc2cc(Cl)ccc2-n2c(nnc2[C@H]2CC[C@H](Oc3ccccn3)CC2)C1 (mixture of isomers): < 4.52
- O[C@@H]1Cc2cc(Cl)ccc2-n2c(nnc2[C@H]2CC[C@H](Oc3ccccn3)CC2)C1: < 4.52

###

Measured Papp A→B at 10 µM values are reported for all entries that follow.
Assay: Apparent permeability of compound across apical to basal side in vinblastine treated human Caco-2 cells at 1 to 10 uM incubated for 15 to 60 mins by HPLC analysis
quantity-measured: Papp A→B at 10 µM (×10⁻⁶ cm/s)

- NC1Cc2cc(Cl)ccc2-n2c(nnc2[C@H]2CC[C@H](Oc3ccccn3)CC2)C1 (mixture of isomers): 3
- N#CCC(=O)N[C@@H]1Cc2cc(Cl)ccc2-n2c(nnc2[C@H]2CC[C@H](Oc3ccccn3)CC2)C1: 0.5
- N[C@@H]1Cc2cc(Cl)ccc2-n2c(nnc2[C@H]2CC[C@H](Oc3ccccn3)CC2)C1: 2.8
- CN1Cc2cc(Cl)ccc2-n2c(nnc2[C@H]2CC[C@H](Oc3ccccn3)CC2)C1: 51
- CNC1Cc2cc(Cl)ccc2-n2c(nnc2[C@H]2CC[C@H](Oc3ccccn3)CC2)C1 (stereo not given in full): 40

These data points were gathered from ChEMBL document CHEMBL5532679.
